This collection of values is drawn from PubChem BioAssay AID720536.

experiment: qHTS for Inhibitors of TGF-b: CCL64 Cells Orthogonal Assay for Cherry Picks; conditions: CCL64 CAGA-GFP reporter, TGF-b stimulated, GFP fluorescence, 18 h; series mostly up to 46.1 µM; note: nearly all actives have a fitted effect of over 65% in size
Screen size: about 1,600 compounds; about 650 (41%) were called active. Inconclusive results (about 39%) are left out. Calls come from the whole dose curve; as a rule, active = well fitted inhibition curve with a large enough effect; inconclusive = small, poorly fitted or top-dose-only effect; inactive = no such curve, though single readings can be large or run the other way. The set was probably picked from earlier hits. Shown is part of a subset that was picked to be rich in actives.
Just give me one of these, please: active, inactive

Please review the following examples before continuing.
COMPOUND	CLASS_NAME
COc1cc(NC(=O)c2ccccc2NS(=O)(=O)c2ccc(Cl)s2)cc(OC)c1	active
COc1c(C(C)C)oc2cc3oc(=O)ccc3cc12	inactive
Cc1ccc(C)c(S(=O)(=O)N2CCN(CC(=O)Nc3ccc([N+](=O)[O-])cc3)CC2)c1	inactive
Cc1ccc(CN2CC(N3CCC(Cc4ccccc4)CC3)CS2(=O)=O)cc1 (stereo not drawn)	inactive
Cc1cccc2sc(N(CCCN(C)C)C(=O)CCS(=O)(=O)c3ccccc3)nc12	active
CCCOc1ccccc1C1CC(=O)Nc2cc3c(cc21)OCO3 (stereo not drawn)	active

Query :: Could you check what this test reported for Cc1cc(C)cc(N(CC(=O)N2CC=C(c3ccccc3)CC2)S(=O)(=O)c2c(C)noc2C)c1 ?
Result :: active

Query :: Query: recorded result category for COc1cccc2sc(N(CCCN(C)C)C(=O)CCS(=O)(=O)c3ccccc3)nc12 in this test
Result :: active

Query :: Hi, do you know how Cn1c(=O)n(C)c2cc(S(=O)(=O)N3CCCc4ccccc43)ccc21 came out in this test?
Result :: inactive

Query :: Check the results log: what was the call for CCCOc1ccc(F)cc1-c1cc(C(=O)Nc2ccc(F)c(Cl)c2)[nH]n1 ?
Result :: active

Query :: Lab log entry: COc1ccc(CNC(=O)C[C@H]2C[C@H](C(=O)N3CCOCC3)[C@@]3(CCC4CCCC4)c4[nH]c5ccc(Cl)cc5c4CCN3C2=O)cc1OC — outcome as called in the assay?
Result :: active

Query :: Which outcome was assigned to CCOC(=O)C1=C(N)N(c2ccc(C)cc2)C2=C(C(=O)CCC2)C1c1cccs1 (stereo not drawn) in this test?
Result :: active

Query :: Dear all, I need the recorded test outcome for Cc1ccc(-c2nc3ccc(Br)cn3c2Cc2ccccc2C(F)(F)F)cc1 , thank you.
Result :: inactive

Query :: Can you look up the reported call for O=C(NC1=CC(=O)c2ccccc2C1=O)c1ccccc1 for me?
Result :: active

Query :: Give the logged outcome of this assay for the following compound: COc1cc(NC(=O)c2[nH]cnc2C(N)=O)cc(C(=O)Nc2cccc(C(F)(F)F)c2)c1
Result :: active

Query :: Outcome? O=C(Nc1ccc(Br)cn1)c1ccc([N+](=O)[O-])o1
Result :: active

Query :: Kindly provide the recorded test outcome for the following compound: COc1ccc(CC(=O)Nc2ccccc2NC(=O)c2ccco2)cc1OC
Result :: inactive

Query :: Per the records of this test, what outcome belongs to COc1cc(/C=C2\Oc3ccc(C#Cc4ccc(O)cc4)cc3C2=O)cc(OC)c1 ?
Result :: active
